Cited source: paper PMC6573034

- TARGET OR TEST SYSTEM: SfMCT (Syntrophobacter fumaroxidans, UniProt A0LNN5)
- Construct: expressed in transfected cells; host or cells: E. coli JA202 (MC4100 glcA::cat lldP::kan), plasmid pEXT20-SfMCT-3C-10His
- Format: cell-based
- TEST SETTINGS: WT SfMCT; competitor 1 mM final concentration; normalized to control without competitor
REPORTED PROPERTY: Relative uptake of [14C]L-lactate (in %)
Kindly provide the numeric value in % only, without the unit symbol.

Use the examples below as a reference point.
MOLECULE: O=C(O)CCC(=O)O [succinate]
REPORTED PROPERTY: Relative uptake of [14C]L-lactate (in %)
OBSERVED: 57.9601

MOLECULE: CC(=O)O [acetate]
REPORTED PROPERTY: Relative uptake of [14C]L-lactate (in %)
OBSERVED: 90.2435

MOLECULE: O=C(O)CC(=O)O [malonate]
REPORTED PROPERTY: Relative uptake of [14C]L-lactate (in %)
OBSERVED: 91.3566

MOLECULE: O=C(O)/C=C/C(=O)O [fumarate]
REPORTED PROPERTY: Relative uptake of [14C]L-lactate (in %)
OBSERVED: 61.3393

MOLECULE: C[C@@H](O)CC(=O)O [3-HBA, (R)-3-hydroxybutyrate]
REPORTED PROPERTY: Relative uptake of [14C]L-lactate (in %)
OBSERVED: 93.0096

Per the records, this molecule ( O=CO [formate] ) has Relative uptake of [14C]L-lactate (in %) equal to 96.2179

Recorded result, CC(=O)CC(=O)O [ACAC, acetoacetate] , Relative uptake of [14C]L-lactate (in %): 86.3974

The measured Relative uptake of [14C]L-lactate (in %) associated with CCC(=O)O [propionate] reads 58.2752

What the record says about O=C(O)C(=O)O [oxalate] : Relative uptake of [14C]L-lactate (in %) is 95.2988

---

- TARGET OR TEST SYSTEM: SfMCT (Syntrophobacter fumaroxidans)
- Sequence (A0LNN5 1-412): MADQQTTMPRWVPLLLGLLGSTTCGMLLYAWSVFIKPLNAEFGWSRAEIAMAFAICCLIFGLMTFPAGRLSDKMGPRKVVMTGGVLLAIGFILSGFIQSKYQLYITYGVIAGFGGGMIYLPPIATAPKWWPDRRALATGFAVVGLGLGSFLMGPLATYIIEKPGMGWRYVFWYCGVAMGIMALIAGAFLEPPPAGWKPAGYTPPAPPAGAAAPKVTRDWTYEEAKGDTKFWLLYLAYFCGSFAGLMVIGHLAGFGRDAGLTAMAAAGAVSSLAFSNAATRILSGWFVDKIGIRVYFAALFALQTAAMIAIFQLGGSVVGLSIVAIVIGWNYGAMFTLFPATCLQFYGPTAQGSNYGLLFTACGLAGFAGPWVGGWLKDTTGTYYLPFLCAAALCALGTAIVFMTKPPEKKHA
- TEST SETTINGS: wild-type (WT) SfMCT; competition of [14C]L-lactate uptake
REPORTED PROPERTY: Ki

Sample O=C(O)c1ccccc1S [TSA, thiosalicylate] ; Ki observed: 120 µM

---

- TARGET OR TEST SYSTEM: Y331F SfMCT (Syntrophobacter fumaroxidans, UniProt A0LNN5, Y331F)
- ASSAY PROTOCOL: [14C]L-lactate transport competition assay, Y331F SfMCT
- TEST SETTINGS: competition of [14C]L-lactate uptake
REPORTED PROPERTY: pKi
In textbook form, pKi equals minus log to base ten of the concentration in mol/L.

Lab note: O=C(O)c1ccccc1S [TSA, thiosalicylate] gave pKi of 2.86

---

- TARGET OR TEST SYSTEM: SfMCT (Syntrophobacter fumaroxidans, UniProt A0LNN5)
- Construct: expressed in transfected cells; host or cells: E. coli JA202 (MC4100 glcA::cat lldP::kan), plasmid pEXT20-SfMCT-3C-10His
- Sequence (A0LNN5 1-412): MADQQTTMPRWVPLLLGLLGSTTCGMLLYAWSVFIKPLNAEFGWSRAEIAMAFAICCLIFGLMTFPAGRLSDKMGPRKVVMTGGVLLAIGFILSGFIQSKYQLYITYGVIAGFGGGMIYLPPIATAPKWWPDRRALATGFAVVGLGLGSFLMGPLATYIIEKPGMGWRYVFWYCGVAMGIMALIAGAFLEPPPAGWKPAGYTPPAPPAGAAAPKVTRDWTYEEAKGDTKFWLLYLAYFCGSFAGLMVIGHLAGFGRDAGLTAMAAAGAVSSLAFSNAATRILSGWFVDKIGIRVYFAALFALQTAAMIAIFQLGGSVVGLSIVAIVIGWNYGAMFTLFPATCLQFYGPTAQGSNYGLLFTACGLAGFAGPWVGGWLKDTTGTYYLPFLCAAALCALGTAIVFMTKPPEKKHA
- ASSAY PROTOCOL: Uptake of [14C]L-lactate and other radiolabeled monocarboxylates into SfMCT expressing E. coli JA202
- Assay type: cell-based
- TEST SETTINGS: 0.1 µCi radiolabeled monocarboxylate; SfMCT-overexpressing bacteria
REPORTED PROPERTY: Uptake of radioligand by SfMCT (cpm)
Answer in cpm, number only, no unit symbol.

Here's what some known entries look like.
COMPOUND: CC(=O)C(=O)O [pyruvate]
Uptake of radioligand by SfMCT (cpm): 2342.67

COMPOUND: C[C@H](O)C(=O)O [L-lactate]
Uptake of radioligand by SfMCT (cpm): 10963

COMPOUND: CCCC(=O)O [butyrate]
Uptake of radioligand by SfMCT (cpm): 160.333

Reported Uptake of radioligand by SfMCT (cpm) of CCC(=O)O [propionate] : 90.6667

---

- TARGET OR TEST SYSTEM: SfMCT (Syntrophobacter fumaroxidans, UniProt A0LNN5)
- Construct: expressed in transfected cells; host or cells: E. coli JA202 (MC4100 glcA::cat lldP::kan), plasmid pEXT20-SfMCT-3C-10His
- Format: cell-based
- TEST SETTINGS: competitor 1 mM
REPORTED PROPERTY: competition with [14C]L-lactate uptake (in words)

COMPOUND: CCC(=O)O [propionate]
OBSERVED: significantly reduced
--
COMPOUND: CCCC(=O)O [butyrate]
OBSERVED: significantly reduced
